Assay: In vitro cytotoxicity, standard MTT assay, WI38 cells
Format: cell-based, human
Conditions: human, incubation at 37° C. for 48 h
Procedure: Cell Culture. All cell lines were obtained from ATCC unless otherwise noted. […] For all experiments, after removing the test medium, fresh solution of MTT in PBS (40 μL of 0.5 mg MTT/mL) was added to the wells, and the cells were incubated at 37° C. for 3 h. […] The spectrophotometric absorbance measurement of each well in the 96-well plate was run at 570 nm using a Labsystems Multiskan Ascent microplate reader. […]
measured property: IC50 at 48 h (nM)
One number for each entry, in nM.

{"columns": ["compound", "recorded number"],
 "data": [
  ["CC(=O)O[C@@]12CO[C@@H]1C[C@H](O)[C@@]1(C)C(=O)[C@H](OC(=O)C3CC3)C3=C(C)[C@@H](OC(=O)[C@H](OC(=O)Cc4ccccc4SSC(C)CCC(=O)NNC(=O)CCCC[C@@H]4SC[C@@H]5NC(=O)N[C@@H]54)[C@H](C=C(C)C)NC(=O)OC(C)(C)C)C[C@@](O)([C@@H](OC(=O)c4ccccc4)[C@H]21)C3(C)C (stereo partly drawn) [Conjugate 15, Biotin-(SS-Linker)-SB-T-1214]", 670],
  ["CC(=O)O[C@@]12CO[C@@H]1C[C@H](O)[C@@]1(C)C(=O)[C@H](OC(=O)C3CC3)C3=C(C)[C@@H](OC(=O)[C@H](OC(=O)Cc4ccccc4SSC(C)C(=O)NCCNc4nc(NCCOCCOCCOCCNC(=O)CCCC[C@@H]5SC[C@@H]6NC(=O)N[C@@H]65)nc(NCc5cn(CCOCCOCCOCCF)nn5)n4)[C@H](C=C(C)C)NC(=O)OC(C)(C)C)C[C@@](O)([C@@H](OC(=O)c4ccccc4)[C@H]21)C3(C)C (stereo partly drawn) [Conjugate 1]", 709]
]}

So for CC(=O)O[C@@]12CO[C@@H]1C[C@H](O)[C@@]1(C)C(=O)[C@H](OC(=O)C3CC3)C3=C(C)[C@@H](OC(=O)[C@H](O)[C@H](C=C(C)C)NC(=O)OC(C)(C)C)C[C@@](O)([C@@H](OC(=O)c4ccccc4)[C@H]21)C3(C)C [Taxoid 3, SB-T-1214, reference compound] , the logged IC50 at 48 h turned out to be 5.23
